These data points were gathered from patent US20120039917A1.

Test: Sensitivity of cell types to PXD, viability by AV/PI staining
Format: cell-based
Conditions: human, normal bone marrow cells; normal BM, 10 μM PXD for 24 h; read-out: [% viable blasts after PXD exposure]/[% viable blasts after 0.1% DMSO exposure]
property_name: viability at 24 h, 10 μM (%)
Write the number in % without appending the unit.

molecule Oc1ccc(C2=Cc3ccc(O)cc3OC2)cc1 , viability at 24 h, 10 μM observed: 89

* * *

System: resting T cells
Assay: Cell proliferation measured by MTT reduction
Assay type: cell-based
Settings: Homo sapiens, 48 h incubation, read-out: IC50 inhibition of MTT reduction (proliferation)
Protocol: Immediately prior to experiments, frozen PBMC were thawed, centrifuged at 1400 rpm in a Multifuge 3 s (Heraeus) for 4 min, washed in RPMI+10% FCS and resuspended in T cell medium (RPMI+10% FCS+10 μM 2-mercaptoethanol (Sigma), 1×glutamine, 1×non-essential amino acids (Gibco)) at 2×10^6 cells/mL. Cells (2×10^5) were activated by adding 10 μg/mL anti-CD3 and 5 μg/mL anti-CD28 and 20 U/mL IL-2 per well. […]
property_name: IC50

Considering Oc1ccc(C2=Cc3ccc(O)cc3OC2)cc1 , its IC50 with resting T cells was recorded as > 200 µM

* * *

System: proliferating T cells
Test: PMET activity measured by WST-1/PMS reduction
Assay type: cell-based
Conditions: Homo sapiens, T-cell, read-out: IC50 inhibition of PMET (WST-1/PMS reduction)
property_name: pIC50
// field semantics: pIC50 = negative decimal log of concentration (mol/L)

molecule Oc1ccc(C2=Cc3ccc(O)cc3OC2)cc1 , pIC50 observed: 4.34
